conditions: 393.15 K; 10000 kPa; Liquid
Assignment: determine reported mass density for the given molecules.
Numbers only, in kg/m3.

Some molecules with recorded mass density:
INSERT INTO measurements (molecule, quantity_name, obs_value) VALUES
  ('CCCCCOC(C)=O [pentyl ethanoate]', 'mass density', 791.9),
  ('CCOC(C)=O [ethyl acetate]', 'mass density', 790.5),
  ('CCCOC(C)=O [propyl ethanoate]', 'mass density', 788.6);

// moving on: another record for mass density
Input line: # query: mass density of entry CCCCOC(C)=O [butyl ethanoate]
Output line: 790.6

====

conditions: 303.15 K; 25000 kPa; Liquid
Assignment: determine reported mass density for the given compounds.
One number for each entry, in kg/m3.

INSERT INTO assay_data (compound, quantity_name, readout_unit, obs_value) VALUES
  ('CCOC(C)=O [ethyl acetate]', 'mass density', 'kg/m3', 910.7),
  ('CCCOC(C)=O [propyl ethanoate]', 'mass density', 'kg/m3', 897.4),
  ('CCCCCOC(C)=O [pentyl ethanoate]', 'mass density', 'kg/m3', 885.1);

// moving on: another record for mass density
Input line: # query: mass density of entry CCCCOC(C)=O [butyl ethanoate]
Output line: 890.2
